Tested System: human FGFR3 V555M enzyme (cytoplasmic domain carrying V555M mutation) (Homo sapiens, UniProt P22607, V555M)
Construct: human FGFR3 V555M enzyme (cytoplasmic domain carrying V555M mutation, from Carna Biosciences)
Sequence (P22607 397-806 V555M limits assumed): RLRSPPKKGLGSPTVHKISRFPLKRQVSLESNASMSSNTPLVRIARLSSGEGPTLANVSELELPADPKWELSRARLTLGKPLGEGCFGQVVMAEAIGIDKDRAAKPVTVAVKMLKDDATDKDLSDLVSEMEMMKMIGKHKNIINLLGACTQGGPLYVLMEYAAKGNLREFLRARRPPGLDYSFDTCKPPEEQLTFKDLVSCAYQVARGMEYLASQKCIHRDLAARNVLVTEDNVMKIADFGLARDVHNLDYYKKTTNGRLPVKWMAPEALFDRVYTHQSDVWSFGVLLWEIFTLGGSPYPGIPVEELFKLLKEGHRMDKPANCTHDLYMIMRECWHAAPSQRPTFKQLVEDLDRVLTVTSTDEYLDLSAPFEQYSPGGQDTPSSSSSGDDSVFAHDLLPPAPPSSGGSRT
Test Method Notes: FGFR3 V555M mobility shift assay (enzymatic assay)
Conditions: 30 μM ATP, 45 minutes at 30° C., Caliper EZ reader II
As shown below, each of these compounds has a reported log10 IC50 value.
Response schema: value (number) is log10 of IC50 in units of nM.

// known answers, use as guide
- Compound: "CC(Nc1c(-c2nc3ccc(N4CC5CCC(C4)O5)cc3[nH]2)c(=O)[nH]c2ccccc12)c1ncccn1 (single isomer, unassigned) [Compound 44a]"
  log10 IC50: -0.83
- Compound: "CC(Nc1c(-c2nc3ccc(-c4cnn(C)c4)cc3[nH]2)c(=O)[nH]c2ccccc12)c1ncccn1 (single isomer, unassigned) [Compound 53b]"
  log10 IC50: 1.18
- Compound: "CC(C)c1ccnc(C(C)Nc2c(-c3nc4ccc(N5CCOCC5)cc4[nH]3)c(=O)[nH]c3ccccc23)n1 (single isomer, unassigned) [Compound 49a]"
  log10 IC50: 0.85
- Compound: "CC(Nc1c(-c2nc3ccc(N4CCOCC4)cc3[nH]2)c(=O)[nH]c2ccccc12)c1cnccn1 (single isomer, unassigned) [Compound 35b]"
  log10 IC50: 0.46
- Compound: "C[C@H](Nc1c(-c2nc3ccc(N4CCCCC4)cc3[nH]2)c(=O)[nH]c2ccccc12)c1ncccn1 (single isomer, unassigned) [Compound 28a]"
  log10 IC50: -0.52

Now consider the entry below.
Data request: Kindly indicate its recorded log10 IC50. Item: CC(Nc1c(-c2nc3cc(C(F)(F)F)c(N4CCOCC4)cc3[nH]2)c(=O)[nH]c2ccccc12)c1ncccn1 (single isomer, unassigned)
Data returned: -0.32

* * *

Tested System: NIH/3T3 cells overexpressing FGFR3 V555M-TACC3 fusion protein (Homo sapiens, UniProt P22607, V555M, cells depend on it)
Construct: NIH/3T3 FGFR3 V555M-TACC3 CTG (IC50); other: 72-hr incubation, CellTiter Glo, starting with 10 μM; fused on or other part: Q9Y6A5 (Transforming acidic coiled-coil-containing protein 3)
Sequence (P22607 whole entry V555M, the tested form may be a part): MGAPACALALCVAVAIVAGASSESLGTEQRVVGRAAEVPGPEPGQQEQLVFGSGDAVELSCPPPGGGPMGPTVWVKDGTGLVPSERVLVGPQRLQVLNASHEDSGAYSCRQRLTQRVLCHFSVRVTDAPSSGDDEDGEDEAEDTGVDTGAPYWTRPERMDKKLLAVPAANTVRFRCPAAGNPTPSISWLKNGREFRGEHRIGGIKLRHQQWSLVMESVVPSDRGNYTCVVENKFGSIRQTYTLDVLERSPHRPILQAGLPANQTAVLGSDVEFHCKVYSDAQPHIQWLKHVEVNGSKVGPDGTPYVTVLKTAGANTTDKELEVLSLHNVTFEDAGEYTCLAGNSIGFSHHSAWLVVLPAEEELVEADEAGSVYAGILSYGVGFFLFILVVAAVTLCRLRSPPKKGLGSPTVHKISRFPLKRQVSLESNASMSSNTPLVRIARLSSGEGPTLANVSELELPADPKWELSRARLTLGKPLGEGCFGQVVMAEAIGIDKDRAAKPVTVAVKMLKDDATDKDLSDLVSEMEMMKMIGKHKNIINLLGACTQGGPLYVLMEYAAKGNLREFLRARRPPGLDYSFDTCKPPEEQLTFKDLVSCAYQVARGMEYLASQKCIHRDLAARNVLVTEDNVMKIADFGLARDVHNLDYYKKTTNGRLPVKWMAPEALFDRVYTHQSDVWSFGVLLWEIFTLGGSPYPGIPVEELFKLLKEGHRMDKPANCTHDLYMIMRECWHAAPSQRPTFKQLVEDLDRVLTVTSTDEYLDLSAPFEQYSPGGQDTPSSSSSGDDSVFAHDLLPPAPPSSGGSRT
Test Method Notes: NIH/3T3 FGFR3 V555M-TACC3 cell proliferation assay
Assay type: cell-based
Conditions: 72-hr incubation, CellTiter Glo, starting with 10 μM; read-out: NIH/3T3 FGFR3 V555M-TACC3 CTG (IC50)
Hi! Just check whether GI50 is below 0.02 µM. Below gives true (1), equal or above gives false (0).

- Compound: "CC(C)N1CCN(c2ccc3nc(-c4c(N[C@@H](C)c5ccccn5)c5ccccc5[nH]c4=O)[nH]c3c2)CC1 [Compound 56]"
  Group Label: "true (1)"
- Compound: "CC(Nc1c(-c2nc3ccc(-c4cnn(C)c4)cc3[nH]2)c(=O)[nH]c2ccccc12)c1ncccn1 (single isomer, unassigned) [Compound 53a]"
  Group Label: "true (1)"
- Compound: "CC(Nc1c(-c2nc3cc(C(F)(F)F)c(N4CCOCC4)cc3[nH]2)c(=O)[nH]c2ccccc12)c1ncccn1 (single isomer, unassigned) [Compound 45]"
  Group Label: "true (1)"
- Compound: "C[C@H](Nc1c(-c2nc3ccc(N4CCOCC4)c(F)c3[nH]2)c(=O)[nH]c2ccccc12)c1ccccn1 [Compound 24]"
  Group Label: "false (0)"
- Compound: "CC(Nc1c(-c2nc3ccc(N4CCN(CCC(F)(F)F)CC4)cc3[nH]2)c(=O)[nH]c2ccccc12)c1ncccn1 (single isomer, unassigned) [Compound 41a]"
  Group Label: "true (1)"
- Compound: "Cc1cc(N2CCOCC2)cc2[nH]c(-c3c(N[C@@H](C)c4ncccn4)c4ccccc4[nH]c3=O)nc12 [Compound 46]"
  Group Label: "true (1)"

Data request: Take the compound CC(Nc1c(-c2nc3ccc(C4CCOCC4)cc3[nH]2)c(=O)[nH]c2ccccc12)c1ncccn1 (single isomer, unassigned) [Compound 29a] and say whether its GI50 is less than 0.02 µM.
Data returned: true (1)

Reference for the values: patent US11384075B2
